Source: paper PMC5643385

TARGET: UniProtKB P41143
Sequence (P41143 whole entry): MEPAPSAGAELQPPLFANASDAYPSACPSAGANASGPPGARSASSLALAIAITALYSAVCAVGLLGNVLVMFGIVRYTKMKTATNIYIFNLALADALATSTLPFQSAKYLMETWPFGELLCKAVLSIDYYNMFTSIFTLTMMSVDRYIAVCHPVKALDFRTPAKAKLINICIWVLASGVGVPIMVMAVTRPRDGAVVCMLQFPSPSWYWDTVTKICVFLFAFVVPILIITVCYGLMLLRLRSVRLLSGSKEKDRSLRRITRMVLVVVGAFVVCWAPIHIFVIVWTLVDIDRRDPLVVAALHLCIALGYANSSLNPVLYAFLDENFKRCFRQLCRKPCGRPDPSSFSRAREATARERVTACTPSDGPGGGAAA
ASSAY NAME: Radioligand competition binding, [3H]DPDPE, membranes of transfected CHO cells
PROTOCOL CONDITIONS: read-out: Receptor Binding, Ki DOP
pKi: −log10 of the molar value.
MEASUREMENT KIND: pKi

The recorded pKi for entry CC(C)[C@@H](CN1CCC(c2cccc(O)c2)CC1)NC(=O)[C@H]1Cc2ccc(CNC(=N)N)cc2CN1 [Compound 4] equals < 5.00

The recorded pKi for entry CC(C)[C@@H](CN1CCC(c2cccc(O)c2)CC1)NC(=O)[C@@H](N)CCCNC(=N)N [Compound 7] equals < 5.00

The recorded pKi for entry CC(C)[C@@H](CN1CCC(c2cccc(C#N)c2)CC1)NC(=O)[C@H]1Cc2ccc(O)cc2CN1 [Compound 8] equals 6.87

The recorded pKi for entry CC(C)[C@@H](CN1CCC(c2cccc(O)c2)CC1)NC(=O)[C@H]1Cc2ccc(CNS(C)(=O)=O)cc2CN1 [Compound 5] equals < 5.00
